- system: T1, cynomolgus GFRα3 on HEK293/MfGFRα3/MfRet/SRE-Luc cells (cynomolgus, UniProt O60609 1-400 (human entry), limits assumed)
- T1 chain: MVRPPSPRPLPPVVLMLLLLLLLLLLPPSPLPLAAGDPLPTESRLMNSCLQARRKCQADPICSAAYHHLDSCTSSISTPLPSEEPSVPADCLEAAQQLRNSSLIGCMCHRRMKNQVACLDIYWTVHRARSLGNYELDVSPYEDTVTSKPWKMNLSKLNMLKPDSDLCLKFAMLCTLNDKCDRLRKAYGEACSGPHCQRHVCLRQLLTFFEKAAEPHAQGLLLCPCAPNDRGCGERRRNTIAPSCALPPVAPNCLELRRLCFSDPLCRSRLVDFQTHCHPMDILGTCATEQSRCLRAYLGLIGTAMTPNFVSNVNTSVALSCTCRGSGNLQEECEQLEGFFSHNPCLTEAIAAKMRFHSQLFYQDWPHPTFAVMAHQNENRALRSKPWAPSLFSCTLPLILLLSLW
- assay_method_text: cell-based or functional assay
# IC50 (SRE-luc, HEK293/MfGFRα3/MfRET cells, 500 pM human ARTEMIN-MMH) listing for each entry below
Reply numerically in nM, unit not repeated.

Recorded IC50 (SRE-luc, HEK293/MfGFRα3/MfRET cells, 500 pM human ARTEMIN-MMH), per entry:
>>> observed_measurement("H4H2352S (antibody, human IgG4, V domains shown, human IgG4 Fc (H4H); also called H4H2352S-1) VH: EVQLVQSGAEVKKPGASVKVSCKASGYTFTNYGITWVRQAPGQGLEWMGWISAYNGNTGYAQKFQGRVTMTTDTSTSTAYMELRSLRSDDTAVYYCAREDYDFWRAFDIWGQGTMVTVSS VL: EIVLTQSPGTLSLSPGERATLSCRASQSVSSTYLAWLQQKPGQAPRLLIYGASSRATGIPDRFSGSGSGTDFTLTINRLEPEDFAVYYCQQYAYSPYTFGQGTKLEIK")
1.3
>>> observed_measurement("H4H2342P (antibody, human IgG4, V domains shown, human IgG4 Fc (H4H)) VH: EVQLLESGGGLVQPGGSLRLSCAASGFTFSTYAMSWVRQAPGKGLEWVSAIRGNGVNTYYGDSMKGRFTISRDNSKDTLYLQMNSLRAEDTAVYYCAKNKWELLVFEYWGQGTLVTVSS VL: DIQMTQSPSSLSASVGDRVTITCRASQDISNYLAWYQQKPGKVPKLLIYAASTLQSGVPFRFSGSGSGTDFTLTISSLQPEDVATYYCQKYNSAPPFGPGTKVDIK")
2.5
>>> observed_measurement("H4H2243N2 (antibody, human IgG4, V domains shown, human IgG4 Fc (H4H)) VH: QVQLVQSGAEVKKPGASVKVSCKASGYTFTSYGIIWVRQAPGQGLEWMGWISGYNGNTNYAQNLQGRVTMTTDTSTTTAYMELRSLRSDDTAVYYCARWGIATRPYYYYGMDVWGQGTTVTVSS VL: DIQMTQSPSSLSASVGDRVTITCRASQDITNYLAWFQQKPGKAPKSLIYAASSLQSGVPSKFSGSGSGTDFTLTISSLQPEDFATYYCQQYNSYPPTFGPGTKVDIK")
0.8
>>> observed_measurement("H4H2292S (antibody, human IgG4, V domains shown, human IgG4 Fc (H4H)) VH: EVQLVESGGGVVQPGRSLRLSCAASGFTFSSYGMHWVRQAPGKGLEWVSFIWYDGSNKYYADSVKGRFTISRDNSKNTLYLQMNSLTAEDTAVYYCARRGILTGTTAFDIWGQGTMVTVSS VL: DIQMTQSPSSLSASVGDRVTITCRASQSISSYLNWYQQKPGKAPKLLIYAASSLQSGVPSRFSGSGSGTDFTLTIRSLIPEDFATYYCQQTYNTPFTFGPGTKVEIK")
1.5

Could you now look at the following binder, please?
Given the entry H4H2294S (antibody, human IgG4, V domains shown, human IgG4 Fc (H4H)) VH: EVQLVESGGGLVQPGGSLRLSCAASGFTFSSYAMSWVRQAPGKGLEWVSVISGSGGSTYYADAVKGRFTISRDNSKHTLYLQMNSLRAEDTAVYYCTKPSSYSSSNFYYGMDVWGQGSTVTVSS VL: DIQLTQSPSSVSASVGDRVTITCRASQGISSWLAWYQQKPGKAPKLLIYAASSLQSGVPSRFSGSGSGTDFTLTISSLQPEDFATYYCQQTNSFPFPFGPGTKVDIK , report its measured IC50 (SRE-luc, HEK293/MfGFRα3/MfRET cells, 500 pM human ARTEMIN-MMH).
0.7
